Please respond with reported inhibition at 0.3 µM for every item in the list.
- Assay System: human His-PIM1 [2-313] (Homo sapiens, UniProt P11309)
- Construct: purified human His-PIM1 [2-313] enzyme; His (N); purchased University of Dundee, Scotland; host or cells: baculovirus system
- Sequence (P11309 2-313): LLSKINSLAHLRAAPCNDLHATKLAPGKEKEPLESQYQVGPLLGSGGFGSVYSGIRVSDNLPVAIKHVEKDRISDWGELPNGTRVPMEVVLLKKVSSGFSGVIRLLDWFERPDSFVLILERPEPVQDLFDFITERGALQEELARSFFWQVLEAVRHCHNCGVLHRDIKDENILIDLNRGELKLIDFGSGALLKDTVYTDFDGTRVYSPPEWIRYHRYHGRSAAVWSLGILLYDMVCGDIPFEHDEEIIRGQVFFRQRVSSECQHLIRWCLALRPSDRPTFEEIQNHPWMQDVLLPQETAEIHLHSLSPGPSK
- Run Description: PIM1 in-vitro mobility shift assay (Caliper LC3000, FL-Ahx-Bad phosphorylation)
- Type: biochemical
- Condition Description: 1.5 h; percent inhibition at 0.3 uM compound; read-out: PIM1 % I at 0.3 uM
Where a name gives a salt, the structure may show the parent alone.
Numbers only, in %.

// known answers, use as guide
[[record]]
compound = "O=C1NC(=O)/C(=C/c2ccccc2N2CCN(C(=O)c3ccc(CN4CCNCC4)cc3)CC2)S1 [Example 109, hydrochloride]"
result_value = 64.2

[[record]]
compound = "O=C1NC(=O)/C(=C/c2cc(C(F)(F)F)cc(Cl)c2N2CCC(N3CCOCC3)CC2)S1"
result_value = 81.9

[[record]]
compound = "COc1ccc(N2CC[C@H](N(C)C)C2)c(C=C2SC(=O)NC2=O)c1 [Example 84G]"
result_value = 92

[[record]]
compound = "O=C1NC(=O)/C(=C/c2cccnc2N2CCNCC2)S1 [Example 89, hydrochloride]"
result_value = 48.4


Q: Any idea what its inhibition at 0.3 µM is? The compound is COc1cc(/C=C2\SC(=O)NC2=O)c(N2CC[C@H](NC(=O)CCCCN)C2)cc1OC [Example 120, hydrochloride]
Result: 58.9

* * *

- Assay System: human His-PIM1 [2-313] (Homo sapiens, UniProt P11309)
- Construct: purified human His-PIM1 [2-313] enzyme; His (N); purchased University of Dundee, Scotland; host or cells: baculovirus system
- Run Description: PIM1 in-vitro mobility shift assay (Caliper LC3000, FL-Ahx-Bad phosphorylation)
- Assay type: biochemical
- Condition Description: 1.5 h; percent inhibition at 0.3 uM compound; read-out: PIM1 % I at 0.3 uM
Counter-ions that a name gives are not always drawn.
I'd be grateful if you could share measured inhibition at 0.3 µM for these entries.

Please review the entries below; each comes with its answer.
[[record]]
compound = "COc1cc(/C=C2\\SC(=O)NC2=O)c(N2CC[C@@H](NC(=O)CCCCN)C2)cc1OC [Example 119, hydrochloride]"
assay_system = "human His-PIM1 [2-313] (Homo sapiens, UniProt P11309)"
readout = "inhibition at 0.3 µM"
result_value = "56.2%"

[[record]]
compound = "O=C1NC(=O)/C(=C/c2ccccc2N2CCCNCC2)S1 [Example 106, hydrochloride]"
assay_system = "human His-PIM1 [2-313] (Homo sapiens, UniProt P11309)"
readout = "inhibition at 0.3 µM"
result_value = "> 95%"

[[record]]
compound = "CN(C)C1CCN(c2ccccc2/C=C2\\SC(=O)NC2=O)CC1 [Example 49]"
assay_system = "human His-PIM1 [2-313] (Homo sapiens, UniProt P11309)"
readout = "inhibition at 0.3 µM"
result_value = "> 95%"


Give inhibition at 0.3 µM for each listed item.
1. N[C@H]1CCN(c2ccc(C(=O)O)cc2/C=C2\SC(=O)NC2=O)C1 [Example 122AH]
2. C[C@@H]1CN(c2ccc(C(F)(F)F)cc2/C=C2\SC(=O)NC2=O)C[C@H](C)N1 [Example 34, hydrochloride]
3. O=C1NC(=O)/C(=C/c2cc(C(F)(F)F)cc(Cl)c2N2CCCN(CCO)CC2)S1 [Example 26]
4. CN(C)[C@H]1CCN(c2ccc(Cl)cc2C=C2SC(=O)NC2=O)C1 [Example 84I]
5. O=C1NC(=O)/C(=C/c2cc(C(F)(F)F)cc(Cl)c2N2CCN(CC3CC3)CC2)S1 [Example 21]

Result:
["19%", "> 95%", "> 95%", "> 95%", "82.9%"]

* * *

- Assay System: human His-PIM1 [2-313] (Homo sapiens, UniProt P11309)
- Construct: purified human His-PIM1 [2-313] enzyme; His (N); purchased University of Dundee, Scotland; host or cells: baculovirus system
- Run Description: PIM1 in-vitro mobility shift assay (Caliper LC3000, FL-Ahx-Bad phosphorylation)
- Assay type: biochemical
- Condition Description: 1.5 h; percent inhibition at 0.3 uM compound; read-out: PIM1 % I at 0.3 uM
Where a name gives a salt, the structure may show the parent alone.
Readout: inhibition at 0.3 µM

Solved entries:
[[record]]
compound = "CN(C)[C@H]1CCN(c2ccc(F)cc2C=C2SC(=O)NC2=O)C1 [Example 84K]"
result_value = "> 95%"

[[record]]
compound = "COc1cccc(/C=C2\\SC(=O)NC2=O)c1N1CC[C@H](N)C1 [Example 96, hydrochloride]"
result_value = "> 95%"

[[record]]
compound = "O=C1NC(=O)/C(=C/c2cnc3[nH]ccc3c2)S1"
result_value = "< 5%"

[[record]]
compound = "O=C1NC(=O)/C(=C/c2cc(C(F)(F)F)cc(Cl)c2N2CCC(CCO)CC2)S1"
result_value = "< 5%"

[[record]]
compound = "COc1cc(/C=C2\\SC(=O)NC2=O)c(N2CC[C@@H](NCCCN)C2)cc1OC [Example 122A, hydrochloride]"
result_value = "88.2%"


# batch size: 3; output inhibition at 0.3 µM per entry
1. CC(C)(C)OC(=O)N1CCN(c2ccccc2/C=C2\SC(=O)NC2=O)CC1
2. CN(C)[C@H]1CCN(c2c(Br)cccc2/C=C2\SC(=O)NC2=O)C1 [Example 33, hydrochloride]
3. Cc1ccc(N2CC[C@H](N(C)C)C2)c(C=C2SC(=O)NC2=O)c1 [Example 84L]

Result:
["16%", "> 95%", "> 95%"]

Q: Lookup: inhibition at 0.3 µM / human His-PIM1 [2-313] (Homo sapiens, UniProt P11309) / CCCCN1CCCN(c2c(Cl)cc(C(F)(F)F)cc2/C=C2\SC(=O)NC2=O)CC1
Result: 90.8%

* * *

- Assay System: human His-PIM1 [2-313] (Homo sapiens)
- Construct: purified human His-PIM1 [2-313] enzyme; His (N); purchased University of Dundee, Scotland; host or cells: baculovirus system
- Run Description: PIM1 in-vitro mobility shift assay (Caliper LC3000, FL-Ahx-Bad phosphorylation)
- Format: biochemical
- Condition Description: 1.5 h; percent inhibition at 0.3 uM compound; read-out: PIM1 % I at 0.3 uM
Where a name gives a salt, the structure may show the parent alone.
Readout: inhibition at 0.3 µM

Observe how each entry below is paired with its result.
[[record]]
compound = "COc1cc(/C=C2\\SC(=O)NC2=O)c(N2CC[C@H](N(C)C)C2)cc1OC [Example 40]"
assay_system = "human His-PIM1 [2-313] (Homo sapiens)"
readout = "inhibition at 0.3 µM"
result_value = "> 95%"

[[record]]
compound = "N[C@@H]1CCCN(c2c(/C=C3\\SC(=O)NC3=O)cccc2OC2CCCCC2)C1 [Example 122L, hydrochloride]"
assay_system = "human His-PIM1 [2-313] (Homo sapiens)"
readout = "inhibition at 0.3 µM"
result_value = "> 95%"

[[record]]
compound = "COc1cc(/C=C2\\SC(=O)NC2=O)c(N2CCC(O)CC2)cc1OC [Example 42]"
assay_system = "human His-PIM1 [2-313] (Homo sapiens)"
readout = "inhibition at 0.3 µM"
result_value = "58.8%"

[[record]]
compound = "COc1cccc(/C=C2\\SC(=O)NC2=O)c1N1CCC[C@@H](N)C1 [Example 122E, hydrochloride]"
assay_system = "human His-PIM1 [2-313] (Homo sapiens)"
readout = "inhibition at 0.3 µM"
result_value = "> 95%"

[[record]]
compound = "O=C1NC(=O)/C(=C/c2cc(C(F)(F)F)cc(Cl)c2N2CCOCC2)S1 [Example 29]"
assay_system = "human His-PIM1 [2-313] (Homo sapiens)"
readout = "inhibition at 0.3 µM"
result_value = "92.8%"


I'm hoping you can list inhibition at 0.3 µM for every compound here, please.
1. NCCC(=O)N1CCN(c2ccccc2/C=C2\SC(=O)NC2=O)CC1 [Example 129A]
2. CCOc1cccc(/C=C2\SC(=O)NC2=O)c1N1CCC[C@@H](N)C1 [Example 122I, hydrochloride]
3. COc1cc(/C=C2\SC(=O)NC2=O)c(N2CC[C@@H](N)C2)cc1OC [Example 100, hydrochloride]

Result:
["> 95%", "> 95%", "93%"]

* * *

- Assay System: human His-PIM2 [23-299] (Homo sapiens)
- Construct: purified human His-PIM2 [23-299] enzyme; His (N); host or cells: E. coli
- Sequence (Q9P1W9 23-299): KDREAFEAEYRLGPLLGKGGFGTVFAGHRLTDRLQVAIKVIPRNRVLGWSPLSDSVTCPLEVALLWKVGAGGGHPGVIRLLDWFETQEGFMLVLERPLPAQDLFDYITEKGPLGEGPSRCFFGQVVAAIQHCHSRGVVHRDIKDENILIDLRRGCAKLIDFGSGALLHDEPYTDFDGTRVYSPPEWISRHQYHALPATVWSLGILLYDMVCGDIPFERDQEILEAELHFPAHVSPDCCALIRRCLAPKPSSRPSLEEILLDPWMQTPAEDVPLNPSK
- Run Description: PIM2 in-vitro mobility shift assay (Caliper LC3000, FL-Ahx-Bad phosphorylation)
- Type: biochemical
- Condition Description: 1.5 h; percent inhibition at 0.3 uM compound; read-out: PIM2 % I at 0.3 uM
Structures can show the parent of a compound that is named as a salt.
Parameter threshold = 20%. Response is true when inhibition at 0.3 µM meets or exceeds it, else false.

Use these answered entries as a reference point.
[[record]]
molecule = "O=C(Cc1ccncc1)N[C@H]1CCN(c2c(Cl)cccc2/C=C2\\SC(=O)NC2=O)C1"
class_name = "true"

[[record]]
molecule = "NCc1ccc(CN[C@@H]2CCCN(c3c(Cl)cccc3/C=C3\\SC(=O)NC3=O)C2)cc1 [Example 122R, hydrochloride]"
class_name = "true"

[[record]]
molecule = "O=C1NC(=O)/C(=C/c2ccccc2N2CCNCC2)S1 [Example 115, hydrochloride]"
class_name = "true"


Q: Does inhibition at 0.3 µM meet or surpass 20% for O=C1NC(=O)/C(=C/c2cc(C(F)(F)F)cc(Cl)c2N2CCN(CC3CC3)CC2)S1 ?
Result: false

Q: Is it the case that Cn1ccc(C(=O)N[C@H]2CCN(c3c(Cl)cccc3/C=C3\SC(=O)NC3=O)C2)n1 has inhibition at 0.3 µM reaching or exceeding 20%?
Result: false

Q: Tell me whether inhibition at 0.3 µM is at least 20% here: N[C@@H]1CCCN(c2c(/C=C3\SC(=O)NC3=O)cccc2OC2CCCCC2)C1 [Example 122L, hydrochloride]
Result: true

Q: // inclusive: inhibition at 0.3 µM at least 20%? input: O=C1NC(=O)/C(=C/c2cc(C(F)(F)F)cc(Cl)c2N2CCN(C3CCCC3)CC2)S1 [Example 6, hydrochloride]
Result: false

Q: Assess whether reported inhibition at 0.3 µM for CCN(CC)CCOc1ccc(OC)cc1/C=C1\SC(=O)NC1=O sits at 20% or higher.
Result: true
